test: Half life in rat at 2.5 mg/kg, iv administered as single dose; assay type: ADME, organism-based; parameters: dose 2.5 mg/kg, route intravenous; conditions: in vivo
QUANTITY NAME: half-life (h)

- MOL: "CC(C)(CO)Cn1ncn(-c2ccc(N3CCN(c4ccc(OC[C@H]5CO[C@](Cn6cncn6)(c6ccc(F)cc6F)O5)cc4)CC3)cn2)c1=O"
  QUANTITY NAME: "half-life"
  UNIT OF MEASUREMENT: "h"
  READOUT VALUE: 2.3

---

assay: Oral bioavailability in rat at 10 mg/kg, administered as single dose; format: ADME, organism-based; conditions: in vivo
QUANTITY NAME: bioavailability (%)

- COMPOUND: "CC(C)n1ncn(-c2ccc(N3CCN(c4ccc(OC[C@H]5CO[C@](Cn6cncn6)(c6ccc(F)cc6F)O5)cc4)CC3)nc2)c1=O"
  QUANTITY NAME: "bioavailability"
  UNIT OF MEASUREMENT: "%"
  READOUT VALUE: 35
- COMPOUND: "CCC(C)n1ncn(-c2ccc(N3CCN(c4ccc(OCC5COC(Cn6cncn6)(c6ccc(Cl)cc6Cl)O5)cc4)CC3)cc2)c1=O (centres undefined) [ITRACONAZOLE]"
  QUANTITY NAME: "bioavailability"
  UNIT OF MEASUREMENT: "%"
  READOUT VALUE: 8
- COMPOUND: "CC(C)(CO)Cn1ncn(-c2ccc(N3CCN(c4ccc(OC[C@H]5CO[C@](Cn6cncn6)(c6ccc(F)cc6F)O5)cc4)CC3)cn2)c1=O"
  QUANTITY NAME: "bioavailability"
  UNIT OF MEASUREMENT: "%"
  READOUT VALUE: 42.2
- COMPOUND: "CC(C)Cn1ncn(-c2ccc(N3CCN(c4ccc(OC[C@H]5CO[C@](Cn6cncn6)(c6ccc(F)cc6F)O5)cc4)CC3)nc2)c1=O"
  QUANTITY NAME: "bioavailability"
  UNIT OF MEASUREMENT: "%"
  READOUT VALUE: 21.7

---

tested on: Cryptococcus neoformans; experiment: Antifungal activity against Cryptococcus neoformans JLC 50123 by broth microdilution method; format: functional
Here the recorded MIC is given for each entry.
QUANTITY NAME: MIC (µg/mL)

- COMPOUND: "CC(C)n1ncn(-c2ccc(N3CCN(c4ccc(OC[C@H]5CO[C@](Cn6cncn6)(c6ccc(F)cc6F)O5)cc4)CC3)nc2)c1=O"
  READOUT QUALIFIER: "="
  READOUT VALUE: 0.25
- COMPOUND: "CC(CO)n1ncn(-c2ccc(N3CCN(c4ccc(OC[C@H]5CO[C@](Cn6cncn6)(c6ccc(F)cc6F)O5)cc4)CC3)nc2)c1=O (some centres not stated)"
  READOUT QUALIFIER: "<"
  READOUT VALUE: 0.0625
- COMPOUND: "CCC(C)n1ncn(-c2ccc(N3CCN(c4ccc(OC[C@H]5CO[C@](Cn6cncn6)(c6ccc(F)cc6F)O5)cc4)CC3)nc2)c1=O (some centres not stated)"
  READOUT QUALIFIER: "="
  READOUT VALUE: 0.5
- COMPOUND: "CC(C)(CO)Cn1ncn(-c2ccc(N3CCN(c4ccc(OC[C@H]5CO[C@](Cn6cncn6)(c6ccc(F)cc6F)O5)cc4)CC3)nc2)c1=O"
  READOUT QUALIFIER: "="
  READOUT VALUE: 0.125
- COMPOUND: "CC(CO)Cn1ncn(-c2ccc(N3CCN(c4ccc(OC[C@H]5CO[C@](Cn6cncn6)(c6ccc(F)cc6F)O5)cc4)CC3)cn2)c1=O (some centres not stated)"
  READOUT QUALIFIER: "="
  READOUT VALUE: 0.03
- COMPOUND: "CC(CO)Cn1ncn(-c2ccc(N3CCN(c4ccc(OC[C@H]5CO[C@](Cn6cncn6)(c6ccc(F)cc6F)O5)cc4)CC3)nc2)c1=O (some centres not stated)"
  READOUT QUALIFIER: "="
  READOUT VALUE: 0.0625
- COMPOUND: "CCC(CC)n1ncn(-c2ccc(N3CCN(c4ccc(OC[C@H]5CO[C@](Cn6cncn6)(c6ccc(F)cc6F)O5)cc4)CC3)cn2)c1=O"
  READOUT QUALIFIER: "="
  READOUT VALUE: 0.125
